// values below are reported pIC50
System: ATXN2-luc
Procedure summary: Secondary assays, Bright-Glo luciferase in H2 and S2 cells
Format: cell-based
Experimental setup: read-out: Mean IC50
pIC50: −log10 of the molar value.
Measured metric: pIC50

>>> reported_result("C=CCNC1=C2C[C@@H](C)C[C@H](OC)[C@H](O)[C@@H](C)/C=C(\\C)[C@H](OC(N)=O)[C@@H](OC)/C=C\\C=C(/C)C(=O)NC(=CC1=O)C2=O [tanespimycin]")
6.35
>>> reported_result("C[C@@]12OC(=O)[C@]1([C@@H](O)[C@@H]1C=CCCC1)NC(=O)[C@@H]2CCCl [Marizomib]")
5.95
>>> reported_result("N[C@@H](Cc1ccc(N(CCCl)CCCl)cc1)C(=O)O [Melphalan]")
4.62
